Value source: ChEMBL document CHEMBL1129121

- Study target: Somatostatin receptor
- Experimental protocol: Compound was tested for its potency to displace 3-[125I]- - Tyr11-SRIF-14 from somatostatin receptor on membranes of rat cerebral cortex
- Type: tissue-based
Observation type: IC50 (µM)
Give bare numbers, in µM.

Answered examples (5):
molecule=NCCCCCCN1CC2[C@@H](OCc3ccccc3)[C@H](OCc3ccccc3)[C@H](C1)N2CCc1c[nH]c2ccccc12 study_target="Somatostatin receptor" observation_type=IC50 reported=12
molecule=NCCCCCCNC[C@@H]1CN(CCc2c[nH]c3ccccc23)C[C@@H](O)[C@@H](OCc2ccccc2)[C@@H]1OCc1ccccc1 study_target="Somatostatin receptor" observation_type=IC50 reported=10
molecule="NCCCCCCNC[C@H]1[C@@H](OCc2ccccc2)C(OCc2ccccc2)[C@H](CO)N1CCc1c[nH]c2ccccc12 (stereo partly specified)" study_target="Somatostatin receptor" observation_type=IC50 reported=14
molecule="NCCCCCCNC[C@H]1C(OCc2ccccc2)[C@H](OCc2ccccc2)[C@H](O)CN1CCc1c[nH]c2ccccc12 (stereo partly specified)" study_target="Somatostatin receptor" observation_type=IC50 reported=12
molecule="NCCCCCCN[C@H]1CN(CCc2c[nH]c3ccccc23)[C@@H](CO)C(OCc2ccccc2)[C@@H]1OCc1ccccc1 (stereo partly specified)" study_target="Somatostatin receptor" observation_type=IC50 reported=11

Alright, here's another molecule for you.
Q: Any idea what its IC50 is? The molecule is NCCCCCCN1CC2[C@@H](OCc3ccccc3)[C@H](OCc3ccccc3)C1CN2CCc1c[nH]c2ccccc12 (stereo partly specified)
A: 15
